System: Severe acute respiratory syndrome coronavirus 2
experiment summary: Inhibition of SARS-CoV-2 3CL protease at 50 uM using DABCYL-KTSAVLQ-SGFRKME-EDANS as substrate preincubated with enzyme for 30 mins followed by substrate addition and measured after 1 hr by fluorescence spectrophotometry relative to control
applied conditions: time 1.5 hrs
Below is a list of entries, each paired with its recorded inhibition value.
measured endpoint: inhibition (%)

> print(dat)
                                   compound  measured.endpoint  readout.units  readout.relation  quantitative.result
1  C=CS(=O)(=O)N(c1ccc(C(C)(C)C)cc1)C(C(=O)N[C@@H](C)c1ccccc1)c1cccnc1 (mixture of isomers; 14g)         inhibition              %                 >                   95
2  CC#CC(=O)N(c1ccc(C(C)(C)C)cc1)C(C(=O)NC(C)(C)C)c1cccnc1 (centres undefined)         inhibition              %                 =                   93
3  CC(=O)C(=O)N(c1ccc(C(C)(C)C)cc1)C(C(=O)NC1CCCCC1)c1cccnc1 (centres undefined)         inhibition              %                 =                   92
4  O=C(NC1CCCCC1)C(c1cccnc1)N1CCC1=O (centres undefined)         inhibition              %                 <                    5
5  C/C=C/C(=O)N(c1ccc(C(C)(C)C)cc1)C(C(=O)NC(C)(C)C)c1cccnc1 (centres undefined)         inhibition              %                 =                   33
6  CC(C)(C)c1ccc(N(C(=O)C2=CCCCC2)C(C(=O)NC2CCCCC2)c2cccnc2)cc1 (centres undefined)         inhibition              %                 =                   52
7  CC#CC(=O)N(c1ccc(C(C)(C)C)cc1)C(C(=O)NC1CCCC1)c1cccnc1 (centres undefined)         inhibition              %                 =                   88
8  CC(C)(C)NC(=O)C(c1cccnc1)N(C(=O)c1ccco1)c1ccc(C(C)(C)C)cc1 (centres undefined)         inhibition              %                 >                   95
9  C/C=C(\C)C(=O)N(c1ccc(C(C)(C)C)cc1)C(C(=O)NC1CCCCC1)c1cccnc1 (centres undefined)         inhibition              %                 =                   47
